Test: Inhibition of alpha glucosidase (unknown origin) using PNPG as substrate preincubated for 15 to 20 mins followed by substrate addition measured after 45 to 60 mins by spectrophotometric method
Conditions: read-out: IC50
pIC50 values for the compounds below.
A value of pIC50 is the negative decimal logarithm of a concentration given in moles per litre.

Report pIC50, nothing else, for this compound: O=C(CCc1ccncc1)N1C[C@@H](O)[C@H](O)C1 3.01

Report pIC50, nothing else, for this compound: O=C(/C=C/c1ccc(O)cc1)N1C[C@H](O)[C@@H](O)C1 3.30

Report pIC50, nothing else, for this compound: O=C(CCc1ccc(NS(=O)(=O)c2ccc(C(F)(F)F)cc2)cc1)N1C[C@@H](O)[C@H](O)C1 3.37

###

Experiment: Inhibition of alpha glucosidase (unknown origin) using PNPG as substrate preincubated for 15 to 20 mins followed by substrate addition measured after 45 to 60 mins by spectrophotometric method
readout kind: IC50

Examples from the recorded data:
smiles_data=O=S(=O)(c1ccc(OC(F)(F)F)cc1)N1C[C@@H](O)[C@H](O)C1 result=Active
smiles_data=O=C(CCc1ccc(F)cc1)Nc1ccc(CCC(=O)N2C[C@@H](O)[C@H](O)C2)cc1 result="Not Active"
smiles_data=O=C(CCc1ccc(F)cc1)Nc1ccc(CCC(=O)N2C[C@H](O)[C@@H](O)C2)cc1 result="Not Active"
smiles_data=CC(C)(C)OC(=O)Nc1ccc(CCC(=O)N2C[C@H](O)[C@@H](O)C2)cc1 result="Not Active"

Report IC50, nothing else, for this compound: O=C(/C=C/c1ccc(O)cc1)Nc1ccc(CCC(=O)N2C[C@H](O)[C@@H](O)C2)cc1 Not Active

Report IC50, nothing else, for this compound: O=C(CCc1ccccc1)N1C[C@@H](O)[C@H](O)C1 Not Active

Report IC50, nothing else, for this compound: O=C(CCc1ccc(C(F)(F)F)cc1)Nc1ccc(CCC(=O)N2C[C@@H](O)[C@H](O)C2)cc1 Not Active

Report IC50, nothing else, for this compound: O=C(CCc1ccc(NS(=O)(=O)c2ccc(F)cc2)cc1)N1C[C@H](O)[C@@H](O)C1 Active

Report IC50, nothing else, for this compound: O=C(CCc1ccc([N+](=O)[O-])cc1)N1C[C@@H](O)[C@H](O)C1 Not Active

Report IC50, nothing else, for this compound: O=C(CCc1ccccc1)N1C[C@H](O)[C@@H](O)C1 Not Active

Report IC50, nothing else, for this compound: O=C(/C=C/c1ccccc1C(F)(F)F)N1C[C@@H](O)[C@H](O)C1 Active

Report IC50, nothing else, for this compound: O=C(/C=C/c1ccsc1)N1C[C@@H](O)[C@H](O)C1 Not Active

Report IC50, nothing else, for this compound: O=C(CCc1ccccc1F)N1C[C@@H](O)[C@H](O)C1 Not Active

Report IC50, nothing else, for this compound: O=C(/C=C/c1ccc(C(F)(F)F)cc1)Nc1ccc(CCC(=O)N2C[C@@H](O)[C@H](O)C2)cc1 Not Active

Report IC50, nothing else, for this compound: O=C(CCc1ccc(NS(=O)(=O)c2ccc(F)cc2)cc1)N1C[C@@H](O)[C@H](O)C1 Active

Report IC50, nothing else, for this compound: O=C(CCc1ccccc1F)N1C[C@H](O)[C@@H](O)C1 Not Active

Report IC50, nothing else, for this compound: O=C(/C=C/c1ccc(O)cc1)Nc1ccc(CCC(=O)N2C[C@@H](O)[C@H](O)C2)cc1 Not Active

Report IC50, nothing else, for this compound: O=C(/C=C/c1ccsc1)N1C[C@H](O)[C@@H](O)C1 Not Active

Report IC50, nothing else, for this compound: O=C(/C=C/c1ccc(C(F)(F)F)cc1)Nc1ccc(CCC(=O)N2C[C@H](O)[C@@H](O)C2)cc1 Not Active

Report IC50, nothing else, for this compound: O=C(CCc1ccc(C(F)(F)F)cc1)Nc1ccc(CCC(=O)N2C[C@H](O)[C@@H](O)C2)cc1 Not Active

Report IC50, nothing else, for this compound: CC(C)(C)OC(=O)Nc1ccc(CCC(=O)N2C[C@@H](O)[C@H](O)C2)cc1 Not Active

###

Assay: Inhibition of alpha glucosidase (unknown origin) using PNPG as substrate preincubated for 10 mins followed by substrate addition measured after 30 mins
Parameters: species or system Homo sapiens
readout kind: IC50
The number alone won't do; follow it with the unit.

smiles_data=O=C1C=C[C@H](O)N1C(=O)CCc1ccccc1 readout_kind=IC50 result="7.82 mM"

Report IC50, nothing else, for this compound: CO[C@H]1C=CC(=O)N1C(=O)CCc1ccccc1 0.43 mM

###

Test: Inhibition of alpha glucosidase (unknown origin) using PNPG as substrate preincubated for 15 to 20 mins followed by substrate addition measured after 45 to 60 mins by spectrophotometric method
Details: read-out: IC50
IC50 values for the compounds below.
The number alone won't do; follow it with the unit.

Examples from the recorded data:
smiles_data=OCC(CO)N[C@H]1C[C@](O)(CO)[C@@H](O)[C@H](O)[C@H]1O readout_kind=IC50 result="325 µM"
smiles_data=O=C(CCc1ccc(O)cc1)N1C[C@@H](O)[C@H](O)C1 readout_kind=IC50 result="657 µM"
smiles_data=O=C(CCc1ccc([N+](=O)[O-])cc1)N1C[C@H](O)[C@@H](O)C1 readout_kind=IC50 result="772 µM"
smiles_data=Nc1ccc(CCC(=O)N2C[C@H](O)[C@@H](O)C2)cc1 readout_kind=IC50 result="185 µM"

Report IC50, nothing else, for this compound: O=C(CCc1ccsc1)N1C[C@@H](O)[C@H](O)C1 723 µM

Report IC50, nothing else, for this compound: Nc1ccc(CCC(=O)N2C[C@@H](O)[C@H](O)C2)cc1 108 µM

Report IC50, nothing else, for this compound: O=C(/C=C/c1ccc(F)cc1)Nc1ccc(CCC(=O)N2C[C@@H](O)[C@H](O)C2)cc1 111 µM

Report IC50, nothing else, for this compound: O=C(CCc1ccc(C(F)(F)F)cc1)N1C[C@@H](O)[C@@H](O)C1 886 µM

Report IC50, nothing else, for this compound: O=C(/C=C/c1ccccc1F)N1C[C@H](O)[C@@H](O)C1 837 µM

###

pIC50 values for the compounds below.
Assay: Inhibition of alpha glucosidase (unknown origin) using PNPG as substrate preincubated for 15 to 20 mins followed by substrate addition measured after 45 to 60 mins by spectrophotometric method
Conditions: read-out: IC50
A value of pIC50 is the negative decimal logarithm of a concentration given in moles per litre.

compound=O=C(CCc1ccc(O)cc1)N1C[C@H](O)[C@@H](O)C1 readout_kind=pIC50 measured_number=3.22

Report pIC50, nothing else, for this compound: Cn1cc(C(=O)N2C[C@@H](O)[C@H](O)C2)c2ccccc21 3.28

Report pIC50, nothing else, for this compound: O=C(/C=C/c1ccccc1)N1C[C@H](O)[C@@H](O)C1 3.13

Report pIC50, nothing else, for this compound: O=C(Nc1ccc(CCC(=O)N2C[C@H](O)[C@@H](O)C2)cc1)c1ccsc1 3.31

Report pIC50, nothing else, for this compound: O=S(=O)(c1ccc(O)cc1)N1C[C@H](O)[C@@H](O)C1 3.34

Report pIC50, nothing else, for this compound: O=C(/C=C/c1ccccc1C(F)(F)F)N1C[C@H](O)[C@@H](O)C1 3.18

Report pIC50, nothing else, for this compound: Nc1ccc(CCC(=O)N2C[C@@H](O)[C@@H](O)C2)cc1 3.52

Report pIC50, nothing else, for this compound: O=C(CCc1ccsc1)N1C[C@H](O)[C@@H](O)C1 3.10

Report pIC50, nothing else, for this compound: O=C(/C=C/c1ccccc1)N1C[C@@H](O)[C@H](O)C1 3.09

###

Assay: Inhibition of alpha glucosidase (unknown origin) using PNPG as substrate preincubated for 15 to 20 mins followed by substrate addition measured after 45 to 60 mins by spectrophotometric method
Details: read-out: IC50
IC50 values for the molecules below.
Please give a number only; it is taken to be in µM.

molecule=O=C(CCc1ccccc1C(F)(F)F)N1C[C@H](O)[C@@H](O)C1 measured_number=124
molecule=Cn1cc(C(=O)N2C[C@H](O)[C@@H](O)C2)c2ccccc21 measured_number=594
molecule=Nc1ccc(CCC(=O)Nc2ccc(CCC(=O)N3C[C@H](O)[C@@H](O)C3)cc2)cc1 measured_number=262
molecule=O=C(CCc1ccncc1)N1C[C@H](O)[C@@H](O)C1 measured_number=943
molecule=O=C(CCc1ccc(O)cc1)Nc1ccc(CCC(=O)N2C[C@H](O)[C@@H](O)C2)cc1 measured_number=98.5
molecule=O=C(CCc1ccc(C(F)(F)F)cc1)N1C[C@H](O)[C@@H](O)C1 measured_number=863
molecule="C[C@H]1O[C@H](O[C@H]2[C@H](O)[C@@H](O)[C@@H](O[C@H]3[C@H](O)[C@@H](O)C(O)O[C@@H]3CO)O[C@@H]2CO)[C@H](O)[C@@H](O)[C@@H]1N[C@H]1C=C(CO)[C@@H](O)[C@H](O)[C@H]1O (some centres not stated) [ACARBOSE]" measured_number=360
molecule=O=C(CCc1ccc(NS(=O)(=O)c2ccc(C(F)(F)F)cc2)cc1)N1C[C@H](O)[C@@H](O)C1 measured_number=463

Report IC50, nothing else, for this molecule: O=C(/C=C/c1ccc(F)cc1)Nc1ccc(CCC(=O)N2C[C@H](O)[C@@H](O)C2)cc1 200

Report IC50, nothing else, for this molecule: Nc1ccc(CCC(=O)Nc2ccc(CCC(=O)N3C[C@@H](O)[C@H](O)C3)cc2)cc1 259

Where do these numbers come from? They come from ChEMBL document CHEMBL4020765.
